test: Water solubility of the active ingredient
propertyName: solubility

Query: solubility; subject: CCC[C@@H]1CC(=O)N([C@@H](CC)C(N)=O)C1 [Brivaracetam] ~700 mg/mL
